assay: Hemolytic activity in human RBC at 10 ug/ml after 1 hr relative to control; assay type: ADME, cell-based, Erythrocyte; conditions: red blood cells, read-out: Activity
PROPERTY: hemolysis at 1 h, 10 ug/ml

In [3]: df
Out[3]:
                                        mol                    property  reported_result
0  CCCCCC/C=C\CCCCCCC[C@@H]1C[C@@]2(O)CC(=O)C=C[C@@]2(O)O1  hemolysis at 1 h, 10 ug/ml             < 1%

Q) Please give the measured hemolysis at 1 h, 10 ug/ml for this compound: `CCCCCC/C=C\CCCCCCCC(=O)C[C@@]1(O)C=CC(=O)[C@@H](O)C1`
A) < 1%

Q) For `CCCCCCCCCCCCCCC[C@@H]1C[C@@]2(O)CC(=O)C=C[C@@]2(O)O1` , what is its reported hemolysis at 1 h, 10 ug/ml?
A) < 1%
